# Tested on: SF-539 CNS
# assay_remarks: NCI-60 one-dose screen, 48 h
# run_conditions: 10 µM unless noted
Compounds without any hit were thinned out: in the full panel of roughly 83,000, 20% have a hit. The source made the active and inactive calls. The calls were made as follows: active = growth percent below 10; inactive = the rest.
Response enum: yes = active, no = inactive

Consider the worked cases shown below.
compound	class_name
CCC(=O)Nc1ccc(-c2nc(-c3cccc(OC)c3)c(-c3ccnc(Br)c3)[nH]2)cc1	no
COc1cccc(-c2nc(-c3ccc(NC(=O)OC(C)C)cc3)[nH]c2-c2ccnc(Br)c2)c1	no

Inquiry: What was the test verdict on Cc1nc2nc(SCC(=O)O)[nH]c2c(=O)[nH]1 ?
Reply text: no

Inquiry: What was the test verdict on COc1ccc(C2=Nn3c(nnc3-c3cc(Cl)cc(Cl)c3Cl)SC2)cc1 ?
Reply text: yes

Inquiry: What was the test verdict on CC1Cc2ccccc2N1NC(=O)c1ccc(Cl)c(S(N)(=O)=O)c1 (stereo not given) ?
Reply text: no

====

# Test system: HCC-2998 colon
# assay_remarks: NCI-60 one-dose screen, 48 h (100 = growth as untreated, 0 = no growth, -100 = all killed)
# run_conditions: 10 µM unless noted
# Experimental: Growth inhibition of the HCC-2998 human tumor cell line is measured as a screen for anti-cancer activity. Cells are grown in 96 well plates and exposed to the test compound for 48 hours. Compounds are tested at a single concentration, which is 10^-5 M for most compounds. The reported endpoint is percent growth (GI% or GIPRCNT), where numbers from 0 - 100% represent growth inhibition, and numbers from -100% - 0 represent cell death. For example, a value of 40 represents 60% growth inhibition. […]
This is part of a sample that, as a whole, favours compounds with a hit. Of some 83,000 tested, about 20% had one in any assay.
Provide the reported growth of each item.
Give bare numbers, in %.

The cases that follow already have their growth on record.
molecule	subject_of_test	unit_text	growth
COc1ccc(C(Cc2ccccc2)NCCN2CCOCC2)cc1 (stereo not given)	HCC-2998 colon	%	86.6
CN1C(=O)N(C)C2Nn3c(s/c(=C\c4ccccc4)c3=O)=NC21 (stereo not given)	HCC-2998 colon	%	104
C=C1C(=O)O[C@H]2[C@H]1CC/C(COC(=O)C(C)c1ccc(CC(C)C)cc1)=C\CC[C@@]1(C)O[C@@H]21 (stereo not given in full)	HCC-2998 colon	%	72.2
Nc1nn(C(=O)Nc2ccc(Cc3ccccc3)cc2)c2ccc(Cl)cc12	HCC-2998 colon	%	2.27

Pending molecule:
Inquiry: I'd like to know its growth. The molecule in question is O=C(Nc1nc2ccc(F)cc2s1)c1cccnc1Nc1ccc(Cl)cc1Cl
Reply text: 8.35

====

# System: BT-549 breast
# assay_remarks: NCI-60 one-dose screen, 48 h
# run_conditions: 10 µM unless noted
This is part of a sample that, as a whole, favours compounds with a hit. Of some 83,000 tested, about 20% had one in any assay. Active and inactive are the calls of the source. Rule for the calls: active = growth percent below 10; inactive = the rest.
Response enum: true (active), false (inactive)

Consider the worked cases shown below.
compound	class_name
COc1ccc(OC)c(/C=C/c2nnc(Nc3ccccc3)o2)c1	false
COc1cc(/C=C2\C(=O)Nc3ccc(Br)cc32)cc(OC)c1OC	false
CN1CCN(c2ccc(-c3cnc4c(-c5csc6ccccc56)cnn4c3)cc2)CC1	true
COc1cc(C(=O)c2cc(C)c3[nH]c4ccc(C)cc4c3c2C)cc(OC)c1OC	false

Inquiry: What was the test verdict on CCCCC[C@H](O)C/C=C1/C(=O)C=C[C@@H]1C/C=C\CCCC(=O)O ?
Reply text: false

Inquiry: What was the test verdict on CCCCCCCCCCCCCCCCCCOc1ccc(CC(=O)OCC[N+]2(C)CCCCC2)cc1 ?
Reply text: false

Inquiry: What was the test verdict on O=c1c2cc(F)ccc2sc2c(N3CCNCC3)nc3ccc(F)cc3c12 ?
Reply text: false

====

Provide the reported growth of each item.
# Tested on: NCI-H226 lung
# assay_remarks: NCI-60 one-dose screen, 48 h (100 = growth as untreated, 0 = no growth, -100 = all killed)
# run_conditions: 10 µM unless noted
This is part of a sample that, as a whole, favours compounds with a hit. Of some 83,000 tested, about 20% had one in any assay. The source made the active and inactive calls. How the source made its calls: active means growth percent below 10; inactive means the rest.

molecule	growth
COc1c(C2CC(=O)Nc3c2c(C)nn3-c2nc3ccccc3[nH]2)cc2c(c1OC)OCO2 (stereo not given)	75.8% (inactive)
CCN1C(=O)N(CC)C2Nn3c(s/c(=C4\C(=O)N(CC(C)C)c5ccccc54)c3=O)=NC21 (stereo not given)	84.1% (inactive)
Cc1nc2ccccc2n1CC1C(=O)NC(=O)NC1=O	114% (inactive)
Cn1cc(-c2ccc3cc(-c4ccc(CC(=O)Nc5cc(C(C)(C)C)nn5C)cc4)cnc3c2)cn1	-17% (active)
COC1=C(C)C(=O)c2c(c(CCCl)c3n2CCC3OC(C)=O)C1=O (stereo not given)	-14.9% (active)
COc1nc2ccc(C)cc2cc1-c1nc2c(cnn2-c2ccccc2)c(=O)[nH]1	92% (inactive)
CCS(=O)(=O)c1ncnc2nc[nH]c12	94.2% (inactive)
CCCCOc1nc2c(C)cccc2cc1-c1cc(-c2ccc(Cl)cc2)nc(-c2ccc(Cl)cc2)c1	100% (inactive)
COc1cc(Nc2cn[nH]c2-c2ccc(Cl)cc2)cc(OC)c1OC	65.2% (inactive)
COc1nc2ccc(C)cc2cc1-c1nc2c(cnn2-c2ccc(Br)cc2)c(=O)[nH]1	57.5% (inactive)

Below is a list of molecules. For each, state its recorded growth.
1. O=C1c2ccccc2NC(n2sc3ccccc3c2=O)N1c1ccccc1 (stereo not given)
2. O=C(Nc1ccc(F)cc1F)c1cc(F)ccc1O

Reply text:
["93.3% (inactive)", "4.02% (active)"]

====

# Tested on: HOP-62 NSCLC
# assay_remarks: NCI-60 one-dose screen, 48 h (100 = growth as untreated, 0 = no growth, -100 = all killed)
# run_conditions: 10 µM unless noted
The panel holds about 83,000 compounds, 20% with a hit somewhere; the sample as a whole holds those more often.
Param threshold (80%) applies to growth; output Y when value >= threshold, N when value < threshold.

Consider the worked cases shown below.
compound	class_name
O=C(COc1ccc(/C=C2\Cc3ccc(Cl)cc3C2=O)cc1)Nc1nc2ccccc2s1	Y
O=C1CSC(c2c(Cl)cccc2Cl)N1c1nc(Cl)cc(=O)[nH]1 (stereo unspecified)	Y
O=C(S)CNC(=O)c1ccccc1	Y
CNC(=O)c1cc(-n2ccc3cc(NC(=O)c4ccc(N5CCOCC5)c(C(F)(F)F)c4)ccc32)ccn1	N

Now turn to the next compound.
Inquiry: Answer whether growth of c1cc2nc(-c3cn[nH]c3)c3c(c2cc1-c1cn[nH]c1)C1CCC3C1 (stereo unspecified) is greater than or equal to 80%.
Reply text: N

====

# System: NCI-H460 lung
# assay_remarks: NCI-60 one-dose screen, 48 h
# run_conditions: 10 µM unless noted
Compounds without any hit were thinned out: in the full panel of roughly 83,000, 20% have a hit. Active and inactive are the calls of the source. Rule for the calls: active = growth percent below 10; inactive = the rest.
Response enum: active, inactive

Consider the worked cases shown below.
compound	subject_of_test	class_name
CCCCC[C@H](O)C/C=C1/C(=O)C=C[C@@H]1C/C=C\CCCC(=O)O	NCI-H460 lung	inactive
Cc1cc(O)c(C2=NN(c3ccc(S(N)(=O)=O)cc3)C(c3ccccc3O)C2)cc1Cl (stereo not given)	NCI-H460 lung	active
O=CN1N=C(c2ccc(Nc3ccnc4cc(Cl)ccc34)cc2)CC1c1ccccc1 (stereo not given)	NCI-H460 lung	inactive
Fc1cc(-c2nnc3sc(-c4ccc(Cl)cc4Cl)nn23)c(Cl)cc1Cl	NCI-H460 lung	inactive
CCCCCCn1c(-c2ccc(C(=O)O/N=C(\N)c3ccc4c(c3)OCO4)cc2)nc(-c2ccccc2)c1-c1ccccc1	NCI-H460 lung	active

Now turn to the next compound.
Inquiry: What was the test verdict on COc1ccc(-n2c(N)c(-c3nc4ccccc4[nH]3)cc(C#N)c2=O)cc1 ?
Reply text: inactive

====

# Tested on: CAKI-1 renal
# assay_remarks: NCI-60 one-dose screen, 48 h
# run_conditions: 10 µM unless noted
The panel holds about 83,000 compounds, 20% with a hit somewhere; the sample as a whole holds those more often. Calls of active or inactive are those of the source. Rule for the calls: active = growth percent below 10; inactive = the rest.
Response enum: true (1) (active), false (0) (inactive)

Inquiry: What was the test verdict on COc1ccccc1/C=C1\Oc2cc(OCCN3CCC(Cc4ccccc4)CC3)ccc2C1=O ?
Reply text: false (0)

Inquiry: What was the test verdict on O=C(Cc1ccc(F)c(Cl)c1)Nc1cc(C2(C(F)(F)F)CC2)nn1CC1CCCCC1 ?
Reply text: true (1)

Inquiry: What was the test verdict on Cc1nc2ccccc2c(/C=C/c2ccc(Cl)cc2)c1C(=O)/C=C/c1cccs1 ?
Reply text: false (0)

Inquiry: What was the test verdict on Cc1ccc(C(=O)NCCNc2nccc(-c3c(-c4cccc(F)c4)nc4sccn34)n2)cc1 ?
Reply text: false (0)

Inquiry: What was the test verdict on NC(=O)C1(Nc2ccc(Br)cc2)CCCC1 ?
Reply text: false (0)

Inquiry: What was the test verdict on O=C(Nc1ccc(Cl)cc1F)c1ccccc1O ?
Reply text: false (0)

Inquiry: What was the test verdict on CCN(CC)CCNC(=O)c1cn2ncnc(Oc3ccc(NC(=O)Nc4ccc(Cl)c(C(F)(F)F)c4)cc3)c2c1C ?
Reply text: true (1)

Inquiry: What was the test verdict on COc1cccc(/C=C2\C=C(c3ccccc3)N(Cc3ccccc3)C2=O)c1 ?
Reply text: false (0)

Inquiry: What was the test verdict on O=C(CCOCCNC(=O)COc1ccc2c(c1)OCC(c1ccc(F)cc1)C2=O)NCCCC(O)(P(=O)(O)O)P(=O)(O)O (stereo not given) ?
Reply text: false (0)

Inquiry: What was the test verdict on CCCCCCCCCCCCCCCCCCOc1ccc(CC(=O)OCC[N+]2(C)CCCCC2)cc1 ?
Reply text: false (0)
